From: ChEMBL document CHEMBL5463725

- SYSTEM: Muscarinic acetylcholine receptor M4 (Homo sapiens, UniProt P08173)
- Sequence (P08173 whole entry): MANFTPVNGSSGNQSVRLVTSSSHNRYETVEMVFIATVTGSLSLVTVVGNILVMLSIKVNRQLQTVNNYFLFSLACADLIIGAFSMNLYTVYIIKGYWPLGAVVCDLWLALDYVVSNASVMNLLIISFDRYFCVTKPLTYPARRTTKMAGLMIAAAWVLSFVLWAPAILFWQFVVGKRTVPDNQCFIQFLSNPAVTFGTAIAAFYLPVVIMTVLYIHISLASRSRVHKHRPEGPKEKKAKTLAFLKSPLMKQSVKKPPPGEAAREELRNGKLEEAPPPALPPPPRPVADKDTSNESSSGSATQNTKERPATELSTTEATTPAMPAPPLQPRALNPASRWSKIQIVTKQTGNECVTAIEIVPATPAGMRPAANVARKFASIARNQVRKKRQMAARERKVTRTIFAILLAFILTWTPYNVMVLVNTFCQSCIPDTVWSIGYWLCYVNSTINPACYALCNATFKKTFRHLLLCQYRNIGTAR
- TEST NAME: GPCRScan assay: inhibition of M4
- Parameters: radioligand conc. used [nm] 0.3 – 1.0, parental cells stable CHO
- REPORTED CONDITIONS: read-out: Ki
I'd be grateful if you could share measured pKi for these entries.
The scale used: pKi is minus the common logarithm of the concentration in molar units.

Given the compound O=C1CCC(N2Cc3cc(C4CCN(C(=O)CCCCCN5CCC(c6ccc(Oc7nn8cnnc8c8c7CCCC8)cc6)CC5)CC4)ccc3C2=O)C(=O)N1 (configuration not stated) , write its reported pKi.
6.20

Report pKi, nothing else, for this compound: O=C1NCCCC1N1Cc2cc(C3CCN(C(=O)CCCCCN4CCC(c5ccc(Oc6nn7cnnc7c7c6CCCC7)cc5)CC4)CC3)ccc2C1=O (configuration not stated)
6.05
